Data credit: patent US20200190197A1

target: T1, His-tagged PD-L1 protein (human, UniProt Q9NZQ7 19-238); test: SPR, Biacore T200, multi-cycle; Fab captured on chip, His-tagged PD-L1 as analyte
T1 construct: also called His-tagged antigen PD-L1 protein; human PD-L1; not shown: His tag
T1 sequence (Q9NZQ7 19-238 limits assumed): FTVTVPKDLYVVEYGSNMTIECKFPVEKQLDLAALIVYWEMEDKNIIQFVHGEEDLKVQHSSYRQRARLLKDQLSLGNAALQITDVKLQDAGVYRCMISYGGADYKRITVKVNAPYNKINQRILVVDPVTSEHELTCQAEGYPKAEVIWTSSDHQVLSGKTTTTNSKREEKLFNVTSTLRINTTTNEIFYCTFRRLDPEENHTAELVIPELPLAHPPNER
Please respond with 1 (yes) when measured Kd is strictly beneath 1000 pM, and with 0 (no) in all other cases.

AS01995 (humanized Fab) (Fab, V domains shown, Purified humanized Fab) VH: EVQLVQSGAEVKKPGESLKISCKGSGYSFTSYSINWVRQAPGKGLEWMGYFYVGNGYTDYNEKFKGRVTMTRNTSISTAYMELSSLRSEDTAVYYCARGGLPYYFDYWGQGTLVTVSS VL: DIQMTQSPSSVSASVGDRVTITCKTSQDVNTAVAWYQQKPGKAPKLLLYWASTRHTGVPSRFSGSGSGTDFTLTISSLQPEDVATYYCQQHYNTPLTFGGGTKLEIK ... 1 (yes)
AS02002 (humanized Fab) (Fab, V domains shown, Purified humanized Fab) VH: QMQLVQSGAEVKKTGSSVKVSCKASGYTFTSYSINWVRQARGQRLEWIGYFYVGNGYTDYNEKFKGRVTITADESTSTAYMELSSLRSEDTAVYYCARGGLPYYFDYWGQGTLVTVSS VL: DIQMTQSPSSLSASVGDRVTITCKTSQDVNTAVAWYQQKPDQSPKLLIKWASTRHTGIPARFSGSGSGTEFTLTISSLQSEDFAVYYCQQHYNTPLTFGGGTKLEIK ... 0 (no)

Just wondering, is Kd of AS01790 (humanized Fab) (Fab, V domains shown, Purified humanized Fab derived from PDL1#10 (pFASEBA vector, E. coli)) VH: EVQLVQSGAEVKKPGESLKISCKGSGYSFTSYSINWVRQMPGKGLEWMGYFYVGNGYTDYNEKFKGRVTMTRNTSISTAYMELSSLRSEDTAVYYCARGGLPYYFDYWGQGTLVTVSS VL: DIQMTQSPSTLSASVGDRVTITCKTSQDVNTAVAWYQQKPGKAPKLLIYWASTRHTGVPSRFSGSGSGTEFTLTISSLQPEDFATYYCQQHYNTPLTFGGGTKLEIK below 1000 pM?
1 (yes)

Just wondering, is Kd of AS01789 (humanized Fab) (Fab, V domains shown, Purified humanized Fab) VH: EVQLVQSGAEVKKPGESLKISCKGSGYSFTSYSINWVRQAPGQALEWMGYFYVGNGYTDYNEKFKGRVTITRDTSASTAYMELSSLRSEDTAVYYCARGDLPFYFDYWGDGILVTVAS VL: DIVMTQSPDSLAVSLGERATINCKTSQDVNTAVAWYQQKPGQPPKLLIYWASTRHTGVPDRFSGSGSGTDFTLKISRVEAEDVGVYYCQQHYNTPLTFGGGTKLEIK below 1000 pM?
0 (no)

Just wondering, is Kd of AS02013 (humanized Fab) (Fab, V domains shown, Purified humanized Fab) VH: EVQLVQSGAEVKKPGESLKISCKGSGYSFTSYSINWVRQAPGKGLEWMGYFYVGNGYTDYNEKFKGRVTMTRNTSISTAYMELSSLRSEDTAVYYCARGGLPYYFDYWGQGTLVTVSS VL: DIQLTQSPSSLSASVGDRVTITCKTSQDVNTAVAWYQQKPGQAPRLLIYWASTRHTGVPSRFSGSGSGTDFTLTISSLQPEDFATYYCQQHYNTPLTFGGGTKLEIK below 1000 pM?
1 (yes)
